Source of measurements: the supplement of paper PMC9112550

Tested on: Escherichia coli TOP10
procedure-summary: shrunken log2 fold change of peptide-encoding DNA abundance (4.5 h post-induction vs induction); higher = less antimicrobial activity (less host growth inhibition)
test-settings: time post-induction: 4.5 h; library: site-saturation at positions 5, 18, 19, 20
shrunken log2 fold change of -0.1 or higher: fulfilled. Under -0.1: not fulfilled.

Entry `RRIRMRPPRLPRPRPRPRLIPRP` : is its shrunken log2 fold change no less than -0.1? fulfilled

Further cases:
Has `RRIRVRPPRLPRPRPRPIRSPRP` a recorded shrunken log2 fold change greater than or equal to -0.1? not fulfilled

###

Tested on: Escherichia coli TOP10
procedure-summary: shrunken log2 fold change of peptide-encoding DNA abundance (4.5 h post-induction vs induction); higher = less antimicrobial activity (less host growth inhibition)
test-settings: time post-induction: 4.5 h; library: site-saturation at positions 5, 18, 19, 20
recorded-metric: shrunken log2 fold change
Give bare numbers.

Entry under review: `RRIRQRPPRLPRPRPRPHQWPRP` . Reported shrunken log2 fold change? 0.323

Same lookup for `RRIRFRPPRLPRPRPRPEEVPRP` , please. 0.0815

Can you check `RRIRFRPPRLPRPRPRPFIPPRP` next? -0.823

// each sequence listed below needs its shrunken log2 fold change
1. RRIRTRPPRLPRPRPRPMTEPRP
2. RRIRIRPPRLPRPRPRPFFHPRP
3. RRIRRRPPRLPRPRPRPRYNPRP

1: -0.0359; 2: -0.575; 3: -0.132

###

Test system: Escherichia coli TOP10
procedure-summary: shrunken log2 fold change of peptide-encoding DNA abundance (4.5 h post-induction vs induction); higher = less antimicrobial activity (less host growth inhibition)
test-settings: time post-induction: 4.5 h; library: site-saturation at positions 5, 18, 19, 20
Param threshold (0.02) applies to shrunken log2 fold change; output Criterion met when value >= threshold, Criterion not met when value < threshold.

Example results:
Would you say `RRIRNRPPRLPRPRPRPGGEPRP` shows shrunken log2 fold change at minimum 0.02? Criterion not met

Let us now turn to `RRIRERPPRLPRPRPRPIFNPRP` Criterion not met

Would you mind doing `RRIRKRPPRLPRPRPRPARVPRP` as well? Criterion met

What do you get for `RRIRDRPPRLPRPRPRPTATPRP` ? Criterion met

Also `RRIRHRPPRLPRPRPRPQQQPRP` , if possible. Criterion not met

What would you report for `RRIRVRPPRLPRPRPRPYDFPRP` ? Criterion not met

---
In plain terms: is recorded shrunken log2 fold change at least 0.02 for `RRIRIRPPRLPRPRPRPTRAPRP` ? Criterion met

Same thing, different sequence: `RRIRTRPPRLPRPRPRPCIWPRP` Criterion not met

Now try `RRIRSRPPRLPRPRPRPNFGPRP` . Criterion not met

Also `RRIRPRPPRLPRPRPRPTLLPRP` ? Criterion not met

Please give the result for `RRIRERPPRLPRPRPRPDHLPRP` too. Criterion not met

###

Test system: Escherichia coli TOP10;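 further: peptides expressed intracellularly from a pBAD plasmid library in pooled LB shake-flask culture, induced with 0.3% L-arabinose, DNA abundance read by NGS, three biological replicates, DESeq2 with apeglm shrinkage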
procedure-summary: shrunken log2 fold change of peptide-encoding DNA abundance (4.5 h post-induction vs induction); higher = less antimicrobial activity (less host growth inhibition)
test-settings: time post-induction: 4.5 h; library: site-saturation at positions 5, 18, 19, 20
Kindly state shrunken log2 fold change for each of the entries shown.
Answers are plain numbers.

Given the entry `RRIRHRPPRLPRPRPRPPRNPRP` , report its measured shrunken log2 fold change. 0.105

Go through the items and report each one's shrunken log2 fold change.
1. RRIRLRPPRLPRPRPRPDQYPRP
2. RRIRTRPPRLPRPRPRPPAQPRP
3. RRIRHRPPRLPRPRPRPIMSPRP
4. RRIRPRPPRLPRPRPRPDRKPRP

[-0.014, 0.608, -0.161, -0.124]

Go through the items and report each one's shrunken log2 fold change.
1. RRIRYRPPRLPRPRPRPVNPPRP
2. RRIRTRPPRLPRPRPRPLWEPRP
3. RRIRKRPPRLPRPRPRPGQFPRP
4. RRIRLRPPRLPRPRPRPAPIPRP

1. -0.0594
2. -0.0281
3. 0.00171
4. 0.0892

Go through the items and report each one's shrunken log2 fold change.
1. RRIRGRPPRLPRPRPRPGMHPRP
2. RRIRWRPPRLPRPRPRPMLDPRP
3. RRIRIRPPRLPRPRPRPIDMPRP
4. RRIRPRPPRLPRPRPRPKLNPRP
5. RRIRIRPPRLPRPRPRPVHVPRP
6. RRIRTRPPRLPRPRPRPTFGPRP
7. RRIRVRPPRLPRPRPRPHMWPRP
8. RRIRSRPPRLPRPRPRPYLGPRP

[0.589, 0.426, -0.0681, 0.0891, -0.168, 0.0406, -0.49, -0.204]
